The values you see were collected from the supplement of paper PMC7411054.

# Tested on: A549-CANX-COX4
# Procedure details: phenotypically active (imaging signature differs from DMSO and reproducible) at any of 0.3-9 uM (binary (1 = active, 0 = inactive)); higher = active
# Condition description: treatment time: 24 h
Attribute measured: phenotypically active

# Molecule, Attribute measured, Result
measured = [
    ("Cc1sc2c(c1C)C(c1ccc(Cl)cc1)=N[C@H](CC(=O)OC(C)(C)C)c1nnc(C)n1-2", "phenotypically active", 0),
    ("N#CC(O[C@@H]1O[C@H](CO[C@@H]2O[C@H](CO)[C@@H](O)[C@H](O)[C@H]2O)[C@@H](O)[C@H](O)[C@H]1O)c1ccccc1 (stereo partly drawn)", "phenotypically active", 0),
    ("CC(=O)O[C@H]1C[C@@H]2CC[C@@H]3[C@H](CC[C@@]4(C)[C@H]3C[C@H]([N+]3(C)CCCCC3)[C@@H]4OC(C)=O)[C@@]2(C)C[C@@H]1[N+]1(C)CCCCC1", "phenotypically active", 0),
]

* * *

# Test system: HepG2-GM130-SQSTM1
# Procedure details: phenotypically active (imaging signature differs from DMSO and reproducible) at any of 0.3-9 uM (binary (1 = active, 0 = inactive)); higher = active
# Condition description: treatment time: 24 h
Counter-ions that a name gives are not always drawn.

# Compound, phenotypically active
rows = [
    ("CC[C@H]1CN2CC[C@H]1C[C@@H]2[C@@H](O)c1ccnc2ccc(OC)cc12 [Hydroquinidine HCl]", 1),
    ("CCCN1C[C@H](CSC)C[C@@H]2c3cccc4[nH]cc(c34)C[C@H]21 [pergolide]", 0),
    ("C[C@H]1CC[C@@H]2N(C1)C[C@H]1[C@@H]3C[C@H]4[C@@H](CC(=O)[C@H]5C[C@@H](O)CC[C@@]54C)[C@@H]3CC[C@H]1[C@]2(C)O", 0),
    ("C[C@@H]1O[C@H](C[N+](C)(C)C)C[C@H]1O [(+)-Muscarine iodide]", 0),
]

* * *

# Tested on: A549-GM130-SQSTM1
# Procedure details: lowest phenotypically active concentration; higher = less potent
# Condition description: treatment time: 24 h
Counter-ions that a name gives are not always drawn.
Consider the following compounds and their measured lowest phenotypically active concentration readings.
Attribute measured: lowest phenotypically active concentration (µM)

# Compound, Test target, Relation sign, Result
records = [
    ("COc1cc2c(cc1O)C[C@H]1c3c(cc(O)c(OC)c3-2)CCN1C", "A549-GM130-SQSTM1", "=", 9),
    ("COc1cc([C@@H]2c3cc4c(cc3[C@H](O)[C@H]3COC(=O)[C@H]23)OCO4)cc(OC)c1OC", "A549-GM130-SQSTM1", "≤", 0.3),
    ("COC[C@H]1OC(=O)c2coc3c2[C@@]1(C)C1=C(C3=O)[C@@H]2CCC(=O)[C@@]2(C)C[C@H]1OC(C)=O", "A549-GM130-SQSTM1", "=", 3),
    ("CC[C@@H]1C=CC=CC[C@H](C)[C@@H](O)[C@](C)(O)C(=O)[C@H](C)[C@@H](O)[C@H](C)C(=O)[C@H](C)[C@@H](O)[C@H](C)C=CC(=O)O[C@H]2[C@@H](C)[C@@H](CC1)O[C@@]1(CC[C@@H](C)[C@@H](C[C@H](C)O)O1)[C@@H]2C", "A549-GM130-SQSTM1", "≤", 0.3),
    ("C/C=C(/C)C(=O)O[C@H]1C(C)=C2[C@H]([C@@H]1OC(=O)CCCCCCC)[C@@](C)(OC(C)=O)C[C@H](OC(=O)CCC)[C@@]1(O)[C@H]2OC(=O)[C@@]1(C)O", "A549-GM130-SQSTM1", "≤", 0.3),
    ("C=C1[C@@H](O)C2C=CC[C@H](C)C(=O)[C@](C)(O)C=C[C@@H](OC(C)=O)[C@]23C(=O)N[C@H](Cc2ccccc2)[C@@H]3[C@@H]1C (some centres not stated)", "A549-GM130-SQSTM1", "≤", 0.3),
    ("N#CC(C#N)=NNc1cccc(Cl)c1", "A549-GM130-SQSTM1", "=", 9),
    ("CC(C)[C@@]1(NC(=O)[C@@H]2C[C@@H]3c4cccc5[nH]cc(c45)C[C@H]3N(C)C2)O[C@@]2(O)[C@@H]3CCCN3C(=O)[C@H](Cc3ccccc3)N2C1=O [Dihydroergocristine mesylate]", "A549-GM130-SQSTM1", "=", 9),
    ("C[C@]12CC[C@H](O)C[C@H]1CC[C@@H]1[C@@H]2C[C@@H](O)[C@]2(C)[C@@H](C3=CC(=O)OC3)CC[C@]12O", "A549-GM130-SQSTM1", "≤", 0.3),
    ("CCCCCC[C@H]1C(=O)O[C@H](C)[C@H](NC(=O)c2cccc(NC=O)c2O)C(=O)O[C@@H](C)[C@@H]1OC(=O)CC(C)C [antimycin a]", "A549-GM130-SQSTM1", "≤", 0.3),
    ("N#CC(C#N)=NNc1ccc(OC(F)(F)F)cc1", "A549-GM130-SQSTM1", "=", 3),
    ("CN1C[C@H](C(=O)N[C@]2(C)O[C@@]3(O)[C@@H]4CCCN4C(=O)[C@H](Cc4ccccc4)N3C2=O)C[C@@H]2c3cccc4[nH]cc(c34)C[C@H]21.CN1C[C@H](C(=O)N[C@]2(C)O[C@@]3(O)[C@@H]4CCCN4C(=O)[C@H](Cc4ccccc4)N3C2=O)C[C@@H]2c3cccc4[nH]cc(c34)C[C@H]21 [dihydroergotamine]", "A549-GM130-SQSTM1", "=", 9),
]
